# ASSAY SYSTEM: A1 receptors (Rattus norvegicus, UniProt P25099)
# Sequence (P25099 whole entry): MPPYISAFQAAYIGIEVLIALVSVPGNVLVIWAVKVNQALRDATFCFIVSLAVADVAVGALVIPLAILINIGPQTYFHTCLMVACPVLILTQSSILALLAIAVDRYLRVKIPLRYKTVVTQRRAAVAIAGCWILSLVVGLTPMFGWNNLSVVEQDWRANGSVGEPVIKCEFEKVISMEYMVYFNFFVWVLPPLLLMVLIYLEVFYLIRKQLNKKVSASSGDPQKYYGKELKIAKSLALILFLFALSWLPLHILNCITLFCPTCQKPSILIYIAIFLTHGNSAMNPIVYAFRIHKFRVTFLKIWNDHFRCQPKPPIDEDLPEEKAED
# ASSAY SUMMARY: biochemical
# Format: binding
# TEST SETTINGS: Table 9; [3H]PIA, rat brain membranes; read-out: Ki rA1
Reported Ki values follow for various molecules
Hi! Could you send only the number? It should be in µM, unit omitted.

In the examples that follow, each entry is paired with its recorded Ki.
CCOC(=O)C1=C(C)NC(C)=C(C(=O)OC)C1C#Cc1ccccc1 (stereo not shown) [Compound 76] | 5.39
CCOC(=O)C1=C(C)NC(C)=C(C(=O)OC)C1c1ccc2c(c1)OCO2 (racemic) [Compound 73] | 3.66
COC(=O)C1=C(C)NC(C)=C(C(=O)OCCN(C)Cc2ccccc2)C1c1cccc([N+](=O)[O-])c1 (stereo not shown) [Compound 63, reference compound] | 19.6

// below: Ki requested for another molecule
Query COCCOC(=O)C1=C(C)NC(C)=C(C(=O)OC(C)C)C1c1cccc([N+](=O)[O-])c1 (stereo not shown) [Compound 64, reference compound] yields Ki of 20.1
